Tested on: HCT-116
Assay Summary: Cytotoxicity against human HCT116 cells assessed as reduction in cell viability after 48 hrs by WST8 assay
Type: functional, cell-based
Cond: HCT-116, 48 h
pIC50: −log10 of the molar value.
In this section, each of the molecules is paired with its reported pIC50.
Observed Property: pIC50

[
  {
    "Smiles Notation": "CC[C@H](C)[C@H]1C(=O)N2CCC[C@H]2C(=O)O[C@H](C(C)(C)C)C[C@@H](C)C[C@H](O)[C@H](C)C(=O)N2CCC(CC2)C(=O)N[C@@H](Cc2ccccc2)C(=O)N(C)[C@@H](C)C(=O)N1C",
    "Observed Property": "pIC50",
    "Readout Number": 6.31
  },
  {
    "Smiles Notation": "CC[C@H](C)[C@H]1C(=O)N2CCC[C@H]2C(=O)O[C@H](C(C)(C)C)C[C@@H](C)C[C@H](O)[C@H](C)C(=O)N2CCC(CC2)C(=O)N[C@@H](Cc2ccc(OC)cc2)C(=O)N(C)CC(=O)N1C",
    "Observed Property": "pIC50",
    "Readout Number": 6.07
  },
  {
    "Smiles Notation": "CC[C@H](C)[C@H]1C(=O)N2CCC[C@H]2C(=O)O[C@H](C(C)(C)C)C[C@@H](C)C[C@H](O)[C@H](C)C(=O)NCc2cccc(c2)C(=O)N[C@@H](Cc2ccc(OC)cc2)C(=O)N(C)[C@@H](C)C(=O)N1C",
    "Observed Property": "pIC50",
    "Readout Number": 6.09
  },
  {
    "Smiles Notation": "CC[C@H](C)[C@H]1C(=O)N2CCC[C@H]2C(=O)O[C@H](C(C)(C)C)C[C@@H](C)C[C@H](O)[C@H](C)C(=O)N2CCC(CC2)C(=O)N[C@@H](Cc2ccc(-c3ccccc3)cc2)C(=O)N(C)[C@@H](C)C(=O)N1C",
    "Observed Property": "pIC50",
    "Readout Number": 8.96
  }
]
